Conditions: buffer; pH 7.4; 200.0 µM
READOUT_KIND: solubility kinetic (µg/mL)
Answer with a number only, understood to be in µg/mL.

Given the molecule O=C(NC(=S)Nc1ccccc1Br)C1CCC1 , what is its reported solubility kinetic?
7.8

Any idea what solubility kinetic was measured for Cc1cc(=O)oc2cc(NC(=S)NCc3cccnc3)ccc12 ?
8.9

Which value of solubility kinetic has been reported for Cc1nc2ccc(NC(=O)c3cnc(Cl)c(Cl)c3)cc2s1 in the records?
0.3

State the recorded solubility kinetic for this entry: O=C(COC(=O)c1ccc(S(=O)(=O)N2CCOCC2)cc1)NCc1ccccc1
8.6

May I ask what solubility kinetic has been recorded for NC(=O)c1cccnc1 ?
2.8

So what's the measured solubility kinetic for this one? O=C1C(c2ccccc2)NC(=S)N1C1CCCCC1 (configuration not stated)
2.4

Please report the recorded solubility kinetic for Cc1ccc(CSCC(=O)NCc2ccc3c(c2)OCO3)cc1 .
11.5

Which solubility kinetic is reported for this molecule? O=C(NCc1ccccc1)c1cccn(Cc2ccccc2)c1=O
45.9

Request the reported solubility kinetic associated with COc1cc(C(F)(F)F)c(C(=O)NCc2cccc(Cl)c2)cn1
5.3

// returns reported solubility kinetic for input CCN(CCS(=O)(=O)c1ccc(Cl)cc1)C(=O)Nc1ccc(Cl)cc1
43.2

# query: solubility kinetic of entry CCOCCN(C(=O)c1ccccc1Cl)c1ccccc1
41.1

Quick one: solubility kinetic for CC1CCCC(NC(=O)CCC(=O)c2ccc(F)cc2)C1C (configuration not stated) ?
33.8

Can you look up the measured solubility kinetic of Cc1sc2ncnc(SCC(=O)N3CCCC(C(N)=O)C3)c2c1C (configuration not stated) for me?
53.6

Which value of solubility kinetic has been reported for O=[N+]([O-])c1ncccc1OCc1ccccc1Br in the records?
5.7

Entry under review: COc1cc(CNCc2cccc3ccccc23)cc(OC)c1 . Reported solubility kinetic?
34.1

Dear colleague, I am looking for the recorded solubility kinetic of the following molecule: COc1ccc(Oc2cccc(Cl)c2CNC(=O)CCC(=O)O)cc1
49.5

Name the recorded solubility kinetic for COc1ccccc1C1CCN(C(=O)c2ccccc2)CC1 .
42.4

Entry COc1ccccc1-c1noc(CCCC(=O)NC2CCCC2)n1 has what solubility kinetic?
44.4

What value of measured solubility kinetic is listed for Cl.O=C(CN1CCCCC1)NC1CCc2cc3c(cc21)CCC3 (configuration not stated) ?
45.6

Give its solubility kinetic value. Item: O=C(CSc1ncnc2scc(-c3ccccc3)c12)NC1CCS(=O)(=O)C1 (configuration not stated)
58.6

So what's the measured solubility kinetic for this one? Cl.O=C(COc1ccc(Br)cc1)NCCN1CCCC1
51.8

Could you tell me which solubility kinetic is on file for CCCCn1c(O)c(C(C)=NCCc2c[nH]c3ccccc23)c(=O)[nH]c1=O ?
0.4

Entry CN=C1S/C(=C/c2cn(CC(=O)OC)c3ccccc23)C(=O)N1C : reported solubility kinetic = ?
4.1

Fill in the blank: the reported solubility kinetic of COc1cc2nc(CN3CCN(S(=O)(=O)c4ccc(Br)cc4)CC3)[nH]c(=O)c2cc1OC is ____.
17.7

Fill in the blank: the reported solubility kinetic of Cc1cccc(NC(=O)c2ccccc2NC(=O)c2ccco2)c1 is ____.
0.5

Which solubility kinetic is reported for this molecule? COCCCNC(=S)N1CCCC(c2nc3cc(C)c(C)cc3[nH]2)C1 (configuration not stated)
53.2

Look up solubility kinetic for this molecule: COc1ccc(NS(=O)(=O)c2ccc(N3CCCC3)c(NC(=S)Nc3cccc(C)c3C)c2)cc1
7.6

Entry Cl.N=C1CCCN1c1ccccc1O : reported solubility kinetic = ?
30.6

Which solubility kinetic reading was recorded for the molecule COC(=O)c1ccc(Cl)c(NC(=O)c2cccc([N+](=O)[O-])c2C)c1 ?
0.7
